# studyTarget: B2 bradykinin receptor (Homo sapiens, UniProt P30411)
# Sequence (P30411 whole entry): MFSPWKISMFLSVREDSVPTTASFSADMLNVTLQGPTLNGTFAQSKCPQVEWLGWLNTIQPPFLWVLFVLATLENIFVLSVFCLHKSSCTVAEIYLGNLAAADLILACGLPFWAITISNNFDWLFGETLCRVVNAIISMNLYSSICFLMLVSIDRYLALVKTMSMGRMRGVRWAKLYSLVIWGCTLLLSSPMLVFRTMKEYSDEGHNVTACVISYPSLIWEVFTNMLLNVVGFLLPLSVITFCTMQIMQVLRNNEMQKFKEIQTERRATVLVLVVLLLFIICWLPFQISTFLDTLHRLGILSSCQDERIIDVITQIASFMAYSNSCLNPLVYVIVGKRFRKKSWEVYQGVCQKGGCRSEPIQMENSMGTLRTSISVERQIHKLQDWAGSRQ
# experimentNotes: Binding affinity to human Bradykinin receptor B2 over-expressed in transgenic rats was determined by ex vivo receptor occupancy assay
Examples of molecules with documented Ki follow.

{"columns": ["molecularString", "measuredQuantity", "assayResult"],
 "data": [
  ["O=C(C[C@@H]1C(=O)Nc2ccccc2N1S(=O)(=O)c1ccc(Cl)c(Cl)c1)NCCc1ccc(C2=NCCN2)cc1", "Ki", "> 10 µM"],
  ["CN1CCN=C1c1ccc(CCNC(=O)C[C@@H]2C(=O)Nc3ccc(Cl)cc3N2S(=O)(=O)c2ccc3ccccc3c2)cc1", "Ki", "> 10 µM"],
  ["O=C(C[C@@H]1C(=O)Nc2ccccc2N1S(=O)(=O)c1ccc(Cl)c(Cl)c1)NCCc1ccc(-n2ccnc2)cc1", "Ki", "> 10 µM"]
]}

Which value of Ki has been reported for "O=C(C[C@@H]1C(=O)Nc2ccc(Cl)cc2N1S(=O)(=O)c1ccc2ccccc2c1)NCCc1ccc(-c2ncc[nH]2)cc1" in the records?
> 10 µM

Which value of Ki has been reported for "O=C(C[C@@H]1C(=O)Nc2ccccc2N1S(=O)(=O)c1ccc2ccccc2c1)NCCc1ccc(-c2ncc[nH]2)cc1" in the records?
> 10 µM

Which value of Ki has been reported for "O=C(C[C@@H]1C(=O)Nc2ccc(Cl)cc2N1S(=O)(=O)c1ccc2ccccc2c1)NCCc1ccc(C2=NCCN2)cc1" in the records?
> 10 µM

Which value of Ki has been reported for "O=C(C[C@@H]1C(=O)Nc2ccccc2N1S(=O)(=O)c1ccc(Cl)c(Cl)c1)NCCc1ccc(-n2cnnc2)cc1" in the records?
> 10 µM

---

# studyTarget: B1 bradykinin receptor (Homo sapiens)
# Sequence (P46663 whole entry): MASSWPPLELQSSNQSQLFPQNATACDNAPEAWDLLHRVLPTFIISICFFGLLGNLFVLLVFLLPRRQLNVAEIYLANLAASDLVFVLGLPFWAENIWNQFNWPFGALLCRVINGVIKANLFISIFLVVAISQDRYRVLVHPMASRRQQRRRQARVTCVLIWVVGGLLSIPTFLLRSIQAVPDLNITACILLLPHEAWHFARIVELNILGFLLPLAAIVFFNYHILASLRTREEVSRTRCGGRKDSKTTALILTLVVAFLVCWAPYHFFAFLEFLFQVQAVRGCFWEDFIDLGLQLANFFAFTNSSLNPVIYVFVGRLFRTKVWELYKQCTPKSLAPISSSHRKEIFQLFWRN
# experimentNotes: Binding affinity to human Bradykinin receptor B1 over-expressed in transgenic rats was determined by ex vivo receptor occupancy assay
Examples of molecules with documented Ki follow.
// units = pM; emit number, no label

These recorded examples may help you get a feel for the data.
{"columns": ["molecularString", "unitLabel", "Ki"],
 "data": [
  ["O=C(C[C@@H]1C(=O)Nc2ccc(Cl)cc2N1S(=O)(=O)c1ccc2ccccc2c1)NCCc1ccc(-c2ncc[nH]2)cc1", "pM", 70],
  ["O=C(C[C@@H]1C(=O)Nc2ccccc2N1S(=O)(=O)c1ccc(Cl)c(Cl)c1)NCCc1ccc(C2=NCCN2)cc1", "pM", 30]
]}

// next item, Ki requested
Which value of Ki has been reported for "O=C(C[C@@H]1C(=O)Nc2ccccc2N1S(=O)(=O)c1ccc(Cl)c(Cl)c1)NCCc1ccc(-n2cnnc2)cc1" in the records?
3730

---

# studyTarget: UniProt:P46663
measuredQuantity: pKd
pKd is defined as minus the log10 of a concentration measured in mol/L.

What value of pKd on UniProt:P46663 does "O=C(C[C@@H]1C(=O)Nc2ccccc2N1S(=O)(=O)c1ccc2ccccc2c1)NCCc1ccc(C2=NCCN2)cc1" have?
10.82

---

# studyTarget: B1 bradykinin receptor (Rattus norvegicus, UniProt P97583)
# Sequence (P97583 whole entry): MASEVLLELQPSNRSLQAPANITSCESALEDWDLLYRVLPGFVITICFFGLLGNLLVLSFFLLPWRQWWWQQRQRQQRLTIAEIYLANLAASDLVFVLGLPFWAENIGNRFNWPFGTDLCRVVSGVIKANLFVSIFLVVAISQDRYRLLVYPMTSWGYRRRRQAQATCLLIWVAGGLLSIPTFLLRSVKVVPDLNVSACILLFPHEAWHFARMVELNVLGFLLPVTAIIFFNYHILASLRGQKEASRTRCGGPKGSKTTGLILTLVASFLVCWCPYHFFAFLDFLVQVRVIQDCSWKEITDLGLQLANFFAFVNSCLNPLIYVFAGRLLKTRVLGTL
measuredQuantity: pKi
pKi is defined as minus the log10 of a concentration measured in mol/L.

Which value of pKi has been reported for "O=C(C[C@@H]1C(=O)Nc2ccccc2N1S(=O)(=O)c1ccc2ccccc2c1)NCCc1ccc(C2=NCCN2)cc1" in the records?
7.47

---

# experimentNotes: Half-life of the [35S]- radiolabeled compound
# Format: ADME
measuredQuantity: half-life

Which value of half-life has been reported for "O=C(C[C@@H]1C(=O)Nc2ccccc2N1S(=O)(=O)c1ccc2ccccc2c1)NCCc1ccc(C2=NCCN2)cc1" in the records?
~3.33 h

---

# studyTarget: B1 bradykinin receptor (Homo sapiens)
# experimentNotes: Binding affinity to human Bradykinin receptor B1 over-expressed in transgenic rats was determined by ex vivo receptor occupancy assay
measuredQuantity: pKi
pKi is defined as minus the log10 of a concentration measured in mol/L.

These recorded examples may help you get a feel for the data.
{"columns": ["molecularString", "studyTarget", "assayResult"],
 "data": [
  ["O=C(C[C@@H]1C(=O)Nc2ccccc2N1S(=O)(=O)c1ccc(Cl)c(Cl)c1)NCCc1ccc(-n2ccnc2)cc1", "B1 bradykinin receptor (Homo sapiens)", 8.96],
  ["O=C(C[C@@H]1C(=O)Nc2ccc(Cl)cc2N1S(=O)(=O)c1ccc2ccccc2c1)NCCc1ccc(C2=NCCN2)cc1", "B1 bradykinin receptor (Homo sapiens)", 11.00]
]}

Which value of pKi has been reported for "CN1CCN=C1c1ccc(CCNC(=O)C[C@@H]2C(=O)Nc3ccc(Cl)cc3N2S(=O)(=O)c2ccc3ccccc3c2)cc1" in the records?
10.70

Which value of pKi has been reported for "O=C(C[C@@H]1C(=O)Nc2ccccc2N1S(=O)(=O)c1ccc2ccccc2c1)NCCc1ccc(-c2ncc[nH]2)cc1" in the records?
10.15

---

# experimentNotes: Partition coefficient (logP)
# Assay type: physicochemical
# runConditions: octanol/water
measuredQuantity: logP
Number, no unit, nothing else.

These recorded examples may help you get a feel for the data.
{"columns": ["molecularString", "logP"],
 "data": [
  ["O=C(C[C@@H]1C(=O)Nc2ccccc2N1S(=O)(=O)c1ccc(Cl)c(Cl)c1)NCCc1ccc(-n2ccnc2)cc1", 3.35],
  ["O=C(C[C@@H]1C(=O)Nc2ccccc2N1S(=O)(=O)c1ccc(Cl)c(Cl)c1)NCCc1ccc(C2=NCCN2)cc1", 0.48],
  ["O=C(C[C@@H]1C(=O)Nc2ccccc2N1S(=O)(=O)c1ccc(Cl)c(Cl)c1)NCCc1ccc(-n2cnnc2)cc1", 2.35],
  ["O=C(C[C@@H]1C(=O)Nc2ccc(Cl)cc2N1S(=O)(=O)c1ccc2ccccc2c1)NCCc1ccc(C2=NCCN2)cc1", 1],
  ["CN1CCN=C1c1ccc(CCNC(=O)C[C@@H]2C(=O)Nc3ccc(Cl)cc3N2S(=O)(=O)c2ccc3ccccc3c2)cc1", 0.53]
]}

Which value of logP has been reported for "O=C(C[C@@H]1C(=O)Nc2ccc(Cl)cc2N1S(=O)(=O)c1ccc2ccccc2c1)NCCc1ccc(-c2ncc[nH]2)cc1" in the records?
3.41

Which value of logP has been reported for "O=C(C[C@@H]1C(=O)Nc2ccccc2N1S(=O)(=O)c1ccc2ccccc2c1)NCCc1ccc(-c2ncc[nH]2)cc1" in the records?
3.32

Which value of logP has been reported for "O=C(C[C@@H]1C(=O)Nc2ccccc2N1S(=O)(=O)c1ccc2ccccc2c1)NCCc1ccc(C2=NCCN2)cc1" in the records?
0.25

---

# studyTarget: B1 bradykinin receptor (Homo sapiens)
# Sequence (P46663 whole entry): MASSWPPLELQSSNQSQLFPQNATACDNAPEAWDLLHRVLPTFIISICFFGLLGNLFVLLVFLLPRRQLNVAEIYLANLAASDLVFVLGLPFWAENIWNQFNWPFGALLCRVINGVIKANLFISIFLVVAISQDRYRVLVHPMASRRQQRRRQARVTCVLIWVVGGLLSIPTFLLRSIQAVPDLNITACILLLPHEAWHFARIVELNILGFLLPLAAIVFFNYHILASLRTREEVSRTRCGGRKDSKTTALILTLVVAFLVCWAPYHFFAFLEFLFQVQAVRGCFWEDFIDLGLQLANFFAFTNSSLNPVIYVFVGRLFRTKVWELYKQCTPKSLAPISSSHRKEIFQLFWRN
# experimentNotes: Binding affinity of the [35S]- radiolabeled compound to human Bradykinin receptor B1 over-expressed in transgenic rats was determined by ex vivo receptor occupancy assay
measuredQuantity: pKi
pKi is defined as minus the log10 of a concentration measured in mol/L.

Which value of pKi has been reported for "O=C(C[C@@H]1C(=O)Nc2ccccc2N1S(=O)(=O)c1ccc2ccccc2c1)NCCc1ccc(C2=NCCN2)cc1" in the records?
10.70

---

# studyTarget: B1 bradykinin receptor (Homo sapiens, UniProt P46663)
# experimentNotes: Antagonist activity against human Bradykinin receptor B1 was determined in a fluorescence imaging plate reader assay
measuredQuantity: pIC50
pIC50 is defined as minus the log10 of a concentration measured in mol/L.

Which value of pIC50 has been reported for "O=C(C[C@@H]1C(=O)Nc2ccccc2N1S(=O)(=O)c1ccc2ccccc2c1)NCCc1ccc(C2=NCCN2)cc1" in the records?
10.40
